Assignment: determine reported IC50 for the given compounds.
target: RORγt (Mus musculus, UniProt P51450, T352K); test: RORγt S2 cell Gal4-luciferase reporter assay; settings: IC50(μM), Drosophila S2 cells, Gal4-RORγt luciferase reporter, 20 hr
Sequence (P51450 with tags, fused parts or gaps T352K): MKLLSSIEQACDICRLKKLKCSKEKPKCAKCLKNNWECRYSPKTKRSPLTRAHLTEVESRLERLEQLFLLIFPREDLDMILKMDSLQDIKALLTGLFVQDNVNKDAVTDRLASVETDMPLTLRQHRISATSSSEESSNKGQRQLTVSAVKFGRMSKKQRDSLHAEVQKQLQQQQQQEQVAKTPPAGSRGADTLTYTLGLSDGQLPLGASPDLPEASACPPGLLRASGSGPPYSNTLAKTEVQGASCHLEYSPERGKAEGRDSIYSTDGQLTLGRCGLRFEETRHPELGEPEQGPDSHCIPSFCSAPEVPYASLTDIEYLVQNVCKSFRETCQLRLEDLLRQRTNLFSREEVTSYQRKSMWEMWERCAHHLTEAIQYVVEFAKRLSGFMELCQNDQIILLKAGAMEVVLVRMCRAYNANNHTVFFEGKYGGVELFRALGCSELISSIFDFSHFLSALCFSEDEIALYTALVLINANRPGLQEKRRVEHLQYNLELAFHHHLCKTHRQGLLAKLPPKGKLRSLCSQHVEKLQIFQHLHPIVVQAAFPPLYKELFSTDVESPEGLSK

[Q] Enter reported IC50 observed with RORγt (Mus musculus, UniProt P51450, T352K) for COc1cc(O)c(C(CC(=O)N2CCCC(C)C2)c2ccccc2OC)c(OC)c1 (centres unmarked) [Compound 59]
[A] > 50 µM

[Q] Query IC50 on RORγt (Mus musculus, UniProt P51450, T352K) for COc1cc(O)c(C(CC(=O)N2CCCC(C)C2)c2ccc3c(c2)OCO3)c(OC)c1 (centres unmarked) [Compound 3]
[A] 1 to 10 µM

[Q] Reported IC50 for RORγt (Mus musculus, UniProt P51450, T352K), given COc1cc(O)c(C(CC(=O)N2CC(C)CC(C)C2)c2ccc(C(=O)NC3CC3)cc2)c(OC)c1 (centres unmarked) [Compound 95] ?
[A] 1 to 10 µM

[Q] Form field - read-out: IC50; system: RORγt (Mus musculus, UniProt P51450, T352K); submitted item: COc1cc(O)c(C(CC(=O)N2CC(C)CC(C)C2)c2ccc(N(C)C)cc2)c(OC)c1 (centres unmarked) [Compound 72]
[A] 1 to 10 µM

[Q] Report IC50 for CC1CC(C)CN(C(=O)CC(c2ccc3c(c2)OCO3)c2cc(F)ccc2O)C1 (centres unmarked) [Compound 145] tested on RORγt (Mus musculus, UniProt P51450, T352K).
[A] 1 to 10 µM

[Q] Request: IC50, test system RORγt (Mus musculus, UniProt P51450, T352K), entry COc1cc(O)c(C(CC(=O)N2CCCC(C(=O)N3CCCCC3)C2)c2ccc3c(c2)OCO3)c(OC)c1 (centres unmarked) [Compound 17]
[A] > 50 µM

[Q] Form field - read-out: IC50; system: RORγt (Mus musculus, UniProt P51450, T352K); submitted item: COc1ccccc1C(CC(=O)N1CCCC(C)C1)c1ccccc1 (centres unmarked) [Compound 52]
[A] > 50 µM

[Q] Report IC50 for COc1cc(OC)c(C(c2ccccc2)C(C)(C)C(=O)N2CC(C)CC(C)C2)c(OC)c1 (centres unmarked) [Compound 149] tested on RORγt (Mus musculus, UniProt P51450, T352K).
[A] 1 to 10 µM

[Q] Give RORγt (Mus musculus, UniProt P51450, T352K) IC50 for COc1cc(O)c(C(CC(=O)N2CC(C)CC(C)C2)c2cccc(C(=O)O)c2)c(OC)c1 (centres unmarked) [Compound 101]
[A] 1 to 10 µM

[Q] IC50 of COc1cc(OC)c(C(c2ccccc2)C(C)(C)C(=O)NC2CC(C)(C)CC(C)(C)C2)c(OC)c1 (centres unmarked) [Compound 154] on RORγt (Mus musculus, UniProt P51450, T352K)?
[A] > 50 µM

[Q] Item COc1cc(O)c(C(CC(=O)N2CCCC(C)C2)c2ccc3c(c2)OCO3)c2ccccc12 (centres unmarked) [Compound 129] with RORγt (Mus musculus, UniProt P51450, T352K) - IC50?
[A] 11 to 50 µM

[Q] Could you share what IC50 was measured for COc1cc(O)c(C(CC(=O)N2CCCC(C#N)C2)c2ccc3c(c2)OCO3)c(OC)c1 (centres unmarked) [Compound 6] , tested on RORγt (Mus musculus, UniProt P51450, T352K)?
[A] 11 to 50 µM

[Q] Tell me reported IC50 for COc1cc(O)c(C(CC(=O)N2CC(C)CC(C)C2)c2ccc(S(=O)(=O)N(C)C)cc2)c(OC)c1 (centres unmarked) [Compound 84] , tested with RORγt (Mus musculus, UniProt P51450, T352K).
[A] 11 to 50 µM

[Q] Notebook entry, RORγt (Mus musculus, UniProt P51450, T352K) assay: IC50 of COc1cc(O)c(C(CC(=O)N2CC(C)CC(C)C2)c2ccc(OC(F)(F)F)cc2)c(OC)c1 (centres unmarked) [Compound 96] = ?
[A] 1 to 10 µM

[Q] # value lookup — system RORγt (Mus musculus, UniProt P51450, T352K), readout IC50, item COc1cc(O)c(C(CC(=O)N2CCCC(CO)C2)c2ccc3c(c2)OCO3)c(OC)c1 (centres unmarked) [Compound 20]
[A] 11 to 50 µM

[Q] What value of IC50 on RORγt (Mus musculus, UniProt P51450, T352K) does COc1cc(O)c(C(CC(=O)N2CCCC(C)C2)c2ccc(C(C)C)cc2)c(OC)c1 (centres unmarked) [Compound 64] have?
[A] 1 to 10 µM

[Q] Give IC50 (RORγt (Mus musculus, UniProt P51450, T352K)) of the following compound: COc1cc(O)c(C(CC(=O)N(Cc2ccccc2)Cc2ccccc2)c2ccc3c(c2)OCO3)c(OC)c1 (centres unmarked) [Compound 33]
[A] > 50 µM

[Q] For RORγt (Mus musculus, UniProt P51450, T352K), provide IC50 of COc1cc(OC)c(C(c2ccccc2)C(C)(C)C(=O)N2C3CCC2CC3)c(OC)c1 (centres unmarked) [Compound 153] please.
[A] 1 to 10 µM

[Q] Return IC50 measured with RORγt (Mus musculus, UniProt P51450, T352K) given this compound: COc1cc(O)c(C(CC(=O)N2CCC(Cc3ccccc3)CC2)c2ccc(C)cc2)c(OC)c1 (centres unmarked) [Compound 44]
[A] > 50 µM

[Q] Lab note: need IC50 for COc1cc(O)c(C(CC(=O)N2CCc3ccccc32)c2ccc3c(c2)OCO3)c(OC)c1 (centres unmarked) [Compound 32] on RORγt (Mus musculus, UniProt P51450, T352K), anyone have it?
[A] > 50 µM

[Q] Quick check: IC50 on RORγt (Mus musculus, UniProt P51450, T352K), item COc1cc(O)c(C(CC(=O)N2CCCCC2)c2ccc3c(c2)OCO3)c(OC)c1 (centres unmarked) [Compound 5] ?
[A] 11 to 50 µM

[Q] API: value(readout=IC50, system=RORγt (Mus musculus, UniProt P51450, T352K)) for record COc1cc(O)c(C(CC(=O)N2CC(C)CC(C)C2)c2cc(F)c(F)c(F)c2)c(OC)c1 (centres unmarked) [Compound 109]
[A] 1 to 10 µM

[Q] Please tell me: IC50 of COc1cc(O)c(C(CC(=O)NC2CCC(C)CC2)c2ccc3c(c2)OCO3)c(OC)c1 (centres unmarked) [Compound 23] , system RORγt (Mus musculus, UniProt P51450, T352K)?
[A] 11 to 50 µM

Attribution: patent US10561666B2
